Where do the numbers come from? From paper PMC4211885.

Molecular target: OA/TAMac receptor (Macrobrachium rosenbergii)
Sequence (D9U2B9 entry or part of it): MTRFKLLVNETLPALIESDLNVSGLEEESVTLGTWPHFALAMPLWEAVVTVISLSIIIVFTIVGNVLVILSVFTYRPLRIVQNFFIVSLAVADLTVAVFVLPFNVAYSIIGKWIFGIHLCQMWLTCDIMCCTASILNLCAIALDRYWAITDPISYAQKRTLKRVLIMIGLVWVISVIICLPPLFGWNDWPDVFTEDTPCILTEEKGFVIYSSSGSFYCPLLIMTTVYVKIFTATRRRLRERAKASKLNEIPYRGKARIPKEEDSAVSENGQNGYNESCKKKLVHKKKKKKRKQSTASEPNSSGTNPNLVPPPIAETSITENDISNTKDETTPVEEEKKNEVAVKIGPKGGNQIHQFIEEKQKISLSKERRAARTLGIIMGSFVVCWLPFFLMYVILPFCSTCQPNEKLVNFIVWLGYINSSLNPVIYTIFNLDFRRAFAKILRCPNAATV
Assay: Antagonist block of ID evoked by 50 µM octopamine in OA/TAMac-injected oocytes
Format: cell-based
Description: Recordings were performed 1–3 days post-injection at room temperature (20–22°C). Currents were recorded under two-electrode voltage clamp using an Axoclamp 900a amplifier (Molecular Devices LLC, CA USA). A digidata 1440a analog to digital converter was used in conjunction with pCLAMP 10 software (Molecular Devices) for data acquisition and to generate voltage commands. For each step protocol or chemical application data were typically sampled at 5 KHz and filtered digitally at 1 KHz. […]
pIC50: −log10 of the molar value.
observable: pIC50

>>> df
                            compound_string  experimental_value
0  COC(=O)[C@@H]1[C@H]2C[C@H]3c4[nH]c5ccccc5c4CCN3C[C@@H]2CC[C@@H]1O               ~6.32
